EXPERIMENTAL_TARGET: T1, human GLP-1 receptor (human, UniProt P43220 24-463)
T1 construct: whole, on cells; also called hGLP-1R; hGLP1R
EXPERIMENT_NOTES: [125I]-GLP-1 competition SPA, hGLP-1R membranes
OBSERVATION_TYPE: log10 Ki (log10 of the value in nM)

• YXEGTFTSDYSILLDKKAQQAFIEYLIEGGPSSGAPPPS (Aib2; K17((2-[2-(2-Amino-ethoxy)-ethoxy]-acetyl)2-(γ-Glu)-CO-(CH2)18-CO2H); C-terminal NH2) [Example 254] = 0.41
• XXEGTFTSDYSIXLDXKAQXAFVXYLIAGGPSSGAPPPS (D-Tyr1; Aib2; αMeL13; Orn16; K17((2-[2-(2-Amino-ethoxy)-ethoxy]-acetyl)2-(γ-Glu)-CO-(CH2)18-CO2H); Aib20; D-Glu24; C-terminal NH2) [Example 362] = 0.84
• YXEGTXTSDYSXLDEKAQXEFIXYLIEGGPSSGAPPPS (Aib2; αMeF(2F)6; αMeL12; K16((2-[2-(2-Amino-ethoxy)-ethoxy]-acetyl)2-(γ-Glu)-CO-(CH2)18-CO2H); Aib19; D-Glu23; C-terminal NH2 (positions counted on this 38-residue peptide)) [Example 229] = 1.56
• XXEGTFTSDYSIXLDEKAQXEFIEYLIAGGPSSGAPPPS (D-Tyr1; Aib2; αMeL13; K17((2-[2-(2-Amino-ethoxy)-ethoxy]-acetyl)2-(γ-Glu)-CO-(CH2)18-CO2H); Aib20; C-terminal NH2) [Example 342] = 1.19
• YXEGTXTSDLSIXLDXKAQXTFIXXLIEGGPSSGAPPPS (Aib2; αMeF(2F)6; αMeL13; Orn16; K17((2-[2-(2-Amino-ethoxy)-ethoxy]-acetyl)2-(γ-Glu)-CO-(CH2)16-CO2H); Aib20; D-Glu24; αMeY25; C-terminal NH2) [Example 243] = -0.17
• YXEGTFTSDYSIXLDEKAQXDFIEYLIAGGPSSGAPPPS (Aib2; αMeL13; K17((2-[2-(2-Amino-ethoxy)-ethoxy]-acetyl)2-(γ-Glu)-CO-(CH2)18-CO2H); Aib20; C-terminal NH2) [Example 344] = 1.17

The reported numbers originate from patent US20200024322A1.
